# Tested on: endogenous TFE3
# assayText: TFE3 nuclear translocation, immunocytochemistry high-content imaging
# Type: cell-based
# reportedConditions: PKIS2 primary screening
Can you tell me TFE3 % for the items I'm about to list?
Give bare numbers, in %.

CCn1c(-c2ccccc2)nc2cnccc21 [UNC10225407A]    8.88
Nc1ncc(-c2cccnc2)c2scc(-c3ccc4c(c3)CCN4C(=O)Cc3ccccc3)c12 [UNC10225369A]    19.63
COc1ccc2nc(-c3cccc(C)n3)nc(Nc3ccncc3)c2c1    7.07

Look at each compound and report its TFE3 %.
1. CSc1cccc2c(-c3ccncn3)c(-c3ccc(F)cc3)nn12 [UNC10225437A]
2. CC(=O)N1CCN(c2ccc(Nc3nccc(-c4sc(C(C)C)nc4-c4cccc(NS(=O)(=O)c5cccc(Cl)c5)c4)n3)cn2)CC1 [UNC10225481A]
3. FC(F)(F)c1ccccc1-c1cc(-c2c[nH]nc2-c2ccccn2)ccn1 [UNC10225184A]
4. Cl.Oc1ccc(-c2nc(-c3ccccc3)[nH]c2-c2ccncc2)cc1 [UNC10225482A]

Reply text:
1. 10.83
2. 9.55
3. 4.50
4. 9.08

Look at each compound and report its TFE3 %.
1. NC(=O)c1cccc(Nc2nccc(Nc3ccc(Oc4c(Cl)cccc4Cl)c(Cl)c3)n2)c1
2. CSc1nn2c(=O)cc(N3CCOCC3)nc2n1Cc1cccc(C(F)(F)F)c1C [UNC10243881A]
3. Oc1ccc2ncnc(Nc3ccc(OCc4ccccc4)cc3)c2c1 [UNC10225360A]
4. O=S(=O)(c1ccc(-c2ccnc3[nH]ccc23)cc1)N1CCCC1 [UNC10225462A]
5. Nc1nc(-c2ccccc2F)c(-c2ccnc3ccccc23)s1 [UNC10225301A]
6. NCCCC(NC(=O)c1cc(Br)c(-c2ccnc3[nH]ccc23)s1)c1ccccc1.O=C(O)C(F)(F)F.O=C(O)C(F)(F)F (stereo not shown) [UNC10225265A]
7. Cc1cn2c(=O)cc(N3CCOCC3)nc2n1Cc1cccc(Cl)c1Cl [UNC10225415A]
8. COc1cc2nccc(Nc3ccc(Oc4ccccc4)cc3)c2cc1OC.Cl [UNC10225483A]

Reply text:
1: 20.40; 2: 9.67; 3: 13.64; 4: 10.23; 5: 14.12; 6: 12.13; 7: 10.27; 8: 50.12

Data provenance is paper PMC9851200.
